# experiment-notes: Pharmacokinetic test in rats
# Assay type: in vivo
# experimental-setup: rat; male SD rats, intravenous administration (2.5 mg/kg), plasma
readout: AUC(0-t) (ng·h/mL)

> print(dat)
                            compound.smiles  measured.value
1  [2H]C([2H])([2H])n1cc(C(=O)N[C@H]2CC[C@H](/C=C/c3coc(CN4Cc5ccc(C(F)(F)F)cc5C4)cc3=O)CC2)cn1           12900
2  O=c1cc(CN2Cc3ccc(C(F)(F)F)cc3C2)occ1/C=C/[C@H]1CC[C@H](NC(=O)[C@H]2C[C@H](F)C2)CC1            5640
3  C/C(=C\[C@H]1CC[C@H](NC(=O)c2cnn(C)c2)CC1)c1coc(CN2Cc3ccc(C(F)(F)F)cc3C2)cc1=O            6030
4  O=C(OC1CC1)N1CCC(/C=C/c2coc(CN3Cc4ccc(C(F)(F)F)cc4C3)cc2=O)CC1            4270

----------
# System: pregnenolone level in NCI-H295R cells
# experiment-notes: cells
# Assay type: cell-based
# experimental-setup: Homo sapiens, 72 h, read-out: Pregnenolone level in H295R (Elisa) IC50 nM
# Method: 2. […] The H295R cells were purchased from ATCC (CRL-2128), the cell complete medium contained DMEM: F12+ 10% FBS +0.00625 mg/ml insulin+0.00625 mg/mL transferrin+6.25 ng/mL selenium+1.25 mg/mL BSA+0.00535 mg/mL linoleic acid, and the cells were cultured in a 37°C, 5% CO2 incubator. […] Determination was carried out according to the operation instructions for pregnenolone Elisa kit (Antibodies-A73791), and the OD450 signal was read. […]
Readings of IC50 for the listed molecules
readout: IC50 (nM)

> print(dat)
                            compound.smiles  measured.value
1  [2H]C([2H])([2H])n1cc(C(=O)N[C@H]2CC[C@H](/C=C/c3coc(CN4Cc5ccc(C(F)(F)F)cc5C4)cc3=O)CC2)cn1             146
2  O=C(N[C@H]1CC[C@H](/C=C/c2coc(CN3Cc4ccc(C(F)(F)F)cc4C3)cc2=O)CC1)C1CC(F)(F)C1              94
3  [2H]C([2H])([2H])n1cc(C(=O)N[C@H]2CC[C@H](CCc3coc(CN4Cc5ccc(C(F)(F)F)cc5C4)cc3=O)CC2)cn1              71

----------
Readings of half-life for the listed compounds
# experiment-notes: Pharmacokinetic test in mice
# Format: in vivo
# experimental-setup: mouse, po; male ICR mice, intragastric administration (10 mg/kg), plasma
readout: half-life (h)

> print(dat)
                            compound.smiles    readout  measured.value
1  [2H]C([2H])([2H])n1cc(C(=O)N[C@H]2CC[C@H](/C=C/c3coc(CN4Cc5ccc(C(F)(F)F)cc5C4)cc3=O)CC2)cn1  half-life            5.38
2  O=C(N[C@H]1CC[C@H](/C=C/c2coc(CN3Cc4ccc(C(F)(F)F)cc4C3)cc2=O)CC1)C1CC(F)(F)C1  half-life            4.48
3  O=C(N[C@H]1CC[C@@H](COc2coc(CN3Cc4ccc(C(F)(F)F)cc4C3)cc2=O)CC1)C1COC1  half-life            2.97
4  O=C(N[C@H]1CC[C@H](/C=C/c2coc(CN3Cc4ccc(C(F)(F)F)cc4C3)cc2=O)CC1)[C@@H]1CC1(F)F  half-life            8.11
